List of inhibition at 15 µM values.
molecular target: E. coli TP (Escherichia coli, UniProt P07650); construct: purchased Sigma Aldrich T2807-1KU; assay: In vitro E. coli thymidine phosphorylase inhibition, spectrophotometric assay at 290 nm; type: biochemical; conditions: compound at 15 µM (maximum solubility); 2.5% DMSO
Sequence (P07650 whole entry): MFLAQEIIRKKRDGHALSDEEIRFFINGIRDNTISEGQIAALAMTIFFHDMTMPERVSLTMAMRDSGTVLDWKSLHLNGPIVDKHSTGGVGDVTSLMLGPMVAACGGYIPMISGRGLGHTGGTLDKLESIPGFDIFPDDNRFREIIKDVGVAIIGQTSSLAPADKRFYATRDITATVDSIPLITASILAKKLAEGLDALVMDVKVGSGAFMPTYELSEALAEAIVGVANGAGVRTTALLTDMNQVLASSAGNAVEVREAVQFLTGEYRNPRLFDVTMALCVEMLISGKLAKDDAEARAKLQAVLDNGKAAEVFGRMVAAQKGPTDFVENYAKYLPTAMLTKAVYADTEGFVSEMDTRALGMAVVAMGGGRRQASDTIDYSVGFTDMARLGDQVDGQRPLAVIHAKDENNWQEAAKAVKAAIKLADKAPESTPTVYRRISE
Just the number in %, nothing appended.

Reference set, count: 2
COMPOUND: CN(C)c1c2cc3c(cc2nc2[nH]c(=O)[nH]c(=O)c12)OCO3 [Compound 2s]
MEASURED_PROPERTY: inhibition at 15 µM
VALUE_REPORTED: 0
//
COMPOUND: O=c1[nH]c(=O)c2cc3cc4c(cc3nc2[nH]1)OCO4 [Compound 2g]
MEASURED_PROPERTY: inhibition at 15 µM
VALUE_REPORTED: 0

**Q:** Requested read-out: inhibition at 15 µM. Entry: O=C1c2cc3cc4c(cc3nc2C(=O)N1Cc1cc(=O)[nH]c(=O)[nH]1)OCO4 [Compound 22]
**A:** 25

**Q:** Consider the compound O=c1[nH]c(=O)c2cc3ccc4ccccc4c3nc2[nH]1 [Compound 2n] and give its measured inhibition at 15 µM.
**A:** 0

**Q:** Param item = COc1cc2nc3[nH]c(=O)[nH]c(=O)c3cc2c(OC)c1OC [Compound 2h] ; retrieve measured inhibition at 15 µM.
**A:** 0

---

A collection of compounds and their measured solubility
test: Solubility in the incubation medium; conditions: aqueous buffer, kinetic from dmso stock
# number only, unit µM dropped from output

Here's what some known entries look like.
COMPOUND: O=C1c2cc3c(=O)[nH]c(=O)[nH]c3nc2C(=O)N1CC1CCCCC1 [Compound 28g]
solubility [µM]: 30
//
COMPOUND: O=c1[nH]c(=O)c2cc3ccc(OCc4ccccc4)cc3nc2[nH]1
solubility [µM]: 50
//
COMPOUND: O=C1c2cc3cc4c(cc3nc2C(=O)N1Cc1[nH]c(=O)[nH]c(=O)c1Br)OCO4 [Compound 23b]
solubility [µM]: 50

**Q:** Name the recorded solubility for O=C1c2cc3cc4c(cc3nc2C(=O)N1CCCCn1cc(Br)c(=O)[nH]c1=O)OCO4 [Compound 16a] .
**A:** 25

**Q:** Which solubility value belongs to O=C1c2cc3cc4c(cc3nc2C(=O)N1CCCCCCn1cc(Br)c(=O)[nH]c1=O)OCO4 [Compound 16b] ?
**A:** 12.5

**Q:** For the compound O=c1[nH]c(=O)c2cc3ccc(Cc4ccccc4)cc3nc2[nH]1 , what solubility is on record?
**A:** 50

---

molecular target: E. coli TP (Escherichia coli); construct: purchased Sigma Aldrich T2807-1KU; assay: In vitro E. coli thymidine phosphorylase inhibition, spectrophotometric assay at 290 nm; assay type: biochemical; conditions: compound at 50 µM; 2.5% DMSO; average of three measurements
MEASURED_PROPERTY: inhibition at 50 µM (%)
The reply should contain only the number, in %.

COMPOUND: O=C1c2cc3c(=O)[nH]c(=O)[nH]c3nc2C(=O)N1CCc1ccccc1 [Compound 28e]
TARGET_UNDER_TEST: E. coli TP (Escherichia coli)
inhibition at 50 µM (%): 0

**Q:** What value of inhibition at 50 µM has been recorded for this entry: O=C1c2cc3c(=O)[nH]c(=O)[nH]c3nc2C(=O)N1Cc1ccccc1 [Compound 28a]
**A:** 44

**Q:** Endpoint output: inhibition at 50 µM of O=C1NC(=O)c2nc3[nH]c(=O)[nH]c(=O)c3cc21 . Value?
**A:** 0

**Q:** Any idea what inhibition at 50 µM was measured for Cc1ccc2cc3c(=O)[nH]c(=O)[nH]c3nc2c1 ?
**A:** 0

**Q:** What inhibition at 50 µM value was documented for this compound, O=C1c2cc3cc4c(cc3nc2C(=O)N1Cc1[nH]c(=O)[nH]c(=O)c1I)OCO4 [Compound 23c] ?
**A:** 0

---

experiment: Solubility in the incubation medium; settings: aqueous buffer, kinetic from dmso stock
MEASURED_PROPERTY: solubility (µM)
Your answer should be a plain number; it is taken to be in µM.

Some solved cases for reference:
COMPOUND: O=c1[nH]c(=O)c2cc3ccc(Cl)cc3nc2[nH]1 [Compound 2j]
solubility [µM]: 50
//
COMPOUND: O=c1[nH]c(=O)c2cc3ccc4ccccc4c3nc2[nH]1 [Compound 2n]
solubility [µM]: 15
//
COMPOUND: COc1cc(-c2c3cc4c(cc3nc3[nH]c(=O)[nH]c(=O)c23)OCO4)cc(OC)c1OC [Compound 2r]
solubility [µM]: 25

**Q:** solubility for O=c1[nH]c(=O)c2cc3ccc4cc5ccccc5cc4c3nc2[nH]1 [Compound 2o] ?
**A:** 25

**Q:** Reported solubility, compound COc1cc2nc3[nH]c(=O)[nH]c(=O)c3cc2c(OC)c1OC [Compound 2h] : ____
**A:** 15

**Q:** Give the measured solubility of O=C1c2cc3c(=O)[nH]c(=O)[nH]c3nc2C(=O)N1Cc1ccc(Cl)cc1Cl [Compound 28d] .
**A:** 30

**Q:** Which solubility value is on record for O=C1c2cc3cc4c(cc3nc2C(=O)N1Cc1cc(=O)[nH]c(=O)[nH]1)OCO4 [Compound 22] ?
**A:** 15

**Q:** Please give the measured solubility for this compound: CN(C)c1c2cc3c(cc2nc2[nH]c(=O)[nH]c(=O)c12)OCO3 [Compound 2s]
**A:** 15

---

assay: Solubility in the incubation medium; conditions: aqueous buffer, kinetic from dmso stock
MEASURED_PROPERTY: solubility

Some solved entries appear below for comparison.
QUERY_SMILES: COc1ccc2c(C)c3c(=O)[nH]c(=O)[nH]c3nc2c1
solubility: > 50 µM

QUERY_SMILES: O=C(NCc1cc(=O)[nH]c(=O)[nH]1)c1cc2c(=O)[nH]c(=O)[nH]c2nc1C(=O)NCc1cc(=O)[nH]c(=O)[nH]1
solubility: > 50 µM

Switching to the query record.
**Q:** Given O=c1[nH]c(=O)c2cc3ccc(Oc4ccccc4)cc3nc2[nH]1 , state its recorded solubility.
**A:** 50 µM

---

target: E. coli TP (Escherichia coli, UniProt P07650); construct: purchased Sigma Aldrich T2807-1KU; test: In vitro E. coli thymidine phosphorylase inhibition, spectrophotometric assay at 290 nm; type: biochemical; conditions: compound at 50 µM; 2.5% DMSO; average of three measurements
Overview of recorded inhibition at 50 µM for various compounds
Write down the value, and be sure its unit follows.

Recorded results for 3 compounds are shown here.
COMPOUND: O=c1[nH]c(=O)c2cc3ccc(Cl)cc3nc2[nH]1 [Compound 2j]
MEASURED_PROPERTY: inhibition at 50 µM
VALUE_REPORTED: 0%
//
COMPOUND: O=c1[nH]c(=O)c2cc3cc(Cl)c(Cl)cc3nc2[nH]1 [Compound 2l]
MEASURED_PROPERTY: inhibition at 50 µM
VALUE_REPORTED: 71%
//
COMPOUND: O=c1[nH]c(=O)c2cc3ccc(Oc4ccccc4)cc3nc2[nH]1 [Compound 2e]
MEASURED_PROPERTY: inhibition at 50 µM
VALUE_REPORTED: 30%

**Q:** Recorded inhibition at 50 µM of COc1ccc(CN2C(=O)c3cc4c(=O)[nH]c(=O)[nH]c4nc3C2=O)c(OC)c1 [Compound 28b] , please.
**A:** 0%

**Q:** State the recorded inhibition at 50 µM for this entry: Cc1c2cc3c(cc2nc2[nH]c(=O)[nH]c(=O)c12)OCO3 [Compound 2q]
**A:** 0%

---

test: Solubility in the incubation medium; settings: incubation medium
MEASURED_PROPERTY: Solubility (in words)

Illustrative cases are given below, each with its answer.
MOLECULE: O=C1c2cc3cc4c(cc3nc2C(=O)N1CCCCCCn1cc(Br)c(=O)[nH]c1=O)OCO4 [Compound 16b]
Solubility (in words): less soluble
--
MOLECULE: O=c1[nH]c(=O)c2cc3cc4c(cc3nc2[nH]1)OCO4 [Compound 2g]
Solubility (in words): sparingly soluble
--
MOLECULE: O=c1[nH]c(=O)c2cc3ccc4ccccc4c3nc2[nH]1 [Compound 2n]
Solubility (in words): less soluble
--
MOLECULE: O=C1c2cc3cc4c(cc3nc2C(=O)N1CCCCn1cc(Br)c(=O)[nH]c1=O)OCO4 [Compound 16a]
Solubility (in words): less soluble
--
MOLECULE: O=c1[nH]c(=O)c2cc3ccc4cc5ccccc5cc4c3nc2[nH]1 [Compound 2o]
Solubility (in words): less soluble
--
MOLECULE: O=C1c2cc3cc4c(cc3nc2C(=O)N1Cc1[nH]c(=O)[nH]c(=O)c1Br)OCO4 [Compound 23b]
Solubility (in words): less soluble
--
MOLECULE: COc1cc2nc3[nH]c(=O)[nH]c(=O)c3cc2c(OC)c1OC [Compound 2h]
Solubility (in words): sparingly soluble

**Q:** Requested read-out: Solubility (in words). Entry: O=C1c2cc3cc4c(cc3nc2C(=O)N1Cc1cc(=O)[nH]c(=O)[nH]1)OCO4 [Compound 22]
**A:** less soluble
